In this section, each of the compounds is paired with its reported GI50.
# Tested on: OVCAR-4
# assayProtocol: NCI tumour cell line growth inhibition, 48 h
Calls of active or inactive are those of the source. Rule as the data show it: active = GI50 up to about 1.1 µM and inactive = higher.

Q) Determine from records and report GI50 for Nc1ccc2nc3ccc(=O)cc-3n(-c3ccccc3)c2c1
A) > 100 µM (inactive)

Others:
Q) Supply reported GI50 belonging to this compound: NC1=C(NC(=O)Cc2ccc(F)cc2)C(=O)c2ccccc2C1=O
A) > 100 µM (inactive)

Q) Give the measured GI50 for CC1(C)Cc2c(C#N)c(N)c3c(c2CO1)C(=O)OC3=O
A) > 100 µM (inactive)

Q) Input CCCCCCCCCCCCCCCCOCC(Cl)COP(=O)(O)OP(=O)(O)OCC1OC(n2cc(C)c(=O)[nH]c2=O)CC1O (stereo unspecified) , output reported GI50.
A) > 100 µM (inactive)

Q) Note GI50 for the compound shown: N#C/N=C(\N)NCCO
A) > 100 µM (inactive)

Q) Query GI50 for CSc1nc(SC)c2c(CO)c(Br)n(Cc3ccccc3)c2n1
A) 16.1 µM (inactive)
